system: Coxsacki-B1; experiment: Activity against other picornaviruses, Coxsacki-B1; format: cell-based; conditions: Enterovirus, read-out: MIC 50 Cox. B1
The compounds listed here are annotated with their IC50.
endpoint: IC50

compoundStructure	experimentalSystem	endpoint	result
c1ccc2c(c1)oc1ccc(OCCCCCCc3ccns3)cc12	Coxsacki-B1	IC50	> 25 µg/mL
Cc1cc(CCCCCCCOc2ccc3c(c2)[nH]c2ccccc23)on1	Coxsacki-B1	IC50	> 25 µg/mL
Cc1cc(CCCCCCCOc2cc(C)nc3ccccc23)on1	Coxsacki-B1	IC50	> 25 µg/mL

* * *

The compounds listed here are annotated with their Toxicity.
tested on: WI38 cells; assay: Toxicity to WI38 cells (change in morphology in / growth inhibition of 25% of the cells); type: cell-based; conditions: Table I; concentration with change in morphology in 25% of WI38 cells
endpoint: Toxicity (µg/mL)

compound	resultModifier	numericResult
Cc1cnsc1CCCCCCOc1cccc2ccccc12	>	50
Cc1cc(CCCCCCCOc2cc(C)nc3ccccc23)on1	=	50
Cc1cc(CCCCCCCOc2ccc(C3=NCCO3)cc2)on1 [Disoxaril, reference compound]	=	50
Cc1cc(OCCCCCCc2ccnn2-c2ccccc2)c2ccccc2n1	=	25
Cc1csc(CCCCCCCOc2ccc3oc4ccccc4c3c2)n1	=	50
Cc1cc(CCCCCCCOc2nc3ccccc3[nH]2)on1	=	50
Cc1cc(CCCCCCCOc2ccc3c(c2)[nH]c2ccccc23)on1	=	25
c1ccc(-n2nccc2CCCCCCOc2ccc3ccccc3c2)cc1	=	50
c1ccc(-n2nccc2CCCCCCOc2ccc3oc4ccccc4c3c2)cc1	>	50
Cc1cc(CCCCCCCON2C(=O)COc3c2ccc2ccccc32)on1	>	50
Cc1cc(CCCCCCCOc2cc(C)c3ccccc3n2)on1	=	50
Cc1csc(CCCCCCCOc2cc(C)nc3ccccc23)n1	=	25
Cc1cc(CCCCCCCOc2ccc(-n3cncn3)cc2)on1	=	750
Cc1cc(CCCCCCCOC2c3ccccc3-c3ccccc32)on1	>	50
Cc1cc(CCCCCCCOc2ccc3oc4ccccc4c3c2)on1	=	100
Cc1cnsc1CCCCCCOc1ccc2ccccc2c1	=	50
Cc1csc(CCCCCCOc2ccc3oc4ccccc4c3c2)n1	=	50
Cc1cnsc1CCCCCCOc1ccc2oc3ccccc3c2c1	=	50
Cc1cc(CCCCCCCOc2cccc3ccccc23)on1	>	50
